All figures here come from PubChem BioAssay (NCI).

System: HCT-116 colon
Experiment: NCI tumour cell line growth inhibition, 48 h; in the data active = GI50 below about 0.43 µM; inactive = the rest
Outcome codes: active, inactive

COMPOUND	CLASS
CC(C)(C)C(=O)[CH-]C(=O)C(C)(C)C.CC(C)(C)C(=O)[CH-]C(=O)C(C)(C)C.CN(C)c1ccc([O-])cc1.CN(C)c1ccc([O-])cc1.[Ti+4]	inactive
O=C(N[C@@H](C[Se][Se]C[C@H](NC(=O)c1ccc(Br)cc1F)C(=O)O)C(=O)O)c1ccc(Br)cc1F	inactive
Cn1cc(C2=C(c3cn(C4CCN(Cc5ccccn5)CC4)c4ccccc34)C(=O)NC2=O)c2ccccc21	inactive
Cc1ccc(-c2nc3nc(-c4ccc(F)cc4)nc(N4CCCNCC4)c3o2)cc1	inactive
COc1ccc(C(=O)c2ccc([As]=O)cc2)cc1 (centres undefined)	active
CNC(=O)c1nn(C)c2c1C(C)(C)Cc1cnc(Nc3ccc(N4CCN(C)CC4)cc3)nc1-2	active
O=S(=O)(CCCl)c1ccc(Cl)cc1	inactive
COc1ccc2c(c1)/C(=C/c1cc(OC)c(OC)c(OC)c1)C(=O)N2	active
CC(C)(C)OC(=O)NCCCCCCCn1c2c(c3ccccc3c1=O)C(=O)c1ccccc1-2	inactive

###

Measured TGI by item
Test system: KM12 colon
Assay: NCI tumour cell line growth inhibition, 48 h

MOLECULE	TGI
CC(=O)/C(=C/c1ccccc1F)C(=O)c1ccccc1	> 100 µM
CC(C)(Oc1ccc(/C=C/C(=O)c2ccc(Cl)cc2)cc1)C(=O)Nc1c(Cl)cccc1Cl	25 µM
[O-]/[N+](=C\c1ccccc1OC(=S)S)c1ccc(Cl)cc1	> 100 µM
CSC1=Nc2ccccc2N=C(c2ccc(Cl)cc2)C1	> 100 µM
COc1ccc(COCC[C@H](C)OC2OC(CO[Si](C)(C)C(C)(C)C)C(OC(=O)CCCN=[N+]=[N-])C(OC(=O)CCCN=[N+]=[N-])C2OC(=O)CCCN=[N+]=[N-])cc1 (some centres undefined)	> 100 µM
O=C(c1ccncc1)C1C(=O)c2ccccc2C1C1(O)c2ccccc2CC1C(O)c1ccncc1 (centres undefined)	> 100 µM
COc1cc2ccc1OCc1cccc(n1)COc1ccc(cc1OC)C=Nc1ccc(cc1)N=C2	> 100 µM
CSC(=NCCc1c[nH]c2ccccc12)NC#N	> 100 µM
CCOC(=O)c1nnsc1NN	> 100 µM
COc1c(O)c2c(=O)cc(OC)c3c4c(OC)cc(=O)c5c(O)c(OC)c6c(c(c1C(C(C)O)C6C(C)O)c23)c54 (centres undefined)	3.43 µM
O=C(/C=C/c1ccccc1)CC(=O)CCC(=O)Nc1ccc(Cl)cc1	> 100 µM
Cc1ccc(NC(=O)c2cc(S(=O)(=O)N3C(=O)NC(=O)NS3(=O)=O)c(S)cc2Cl)cc1	52.2 µM
Nc1ncnc2c1ncn2CC(O)CO (centres undefined)	> 100 µM
CO[C@]12C[C@H](CNC(=O)c3ccc[nH]3)O[C@H]1NC(=O)N2	> 100 µM
c1c2c(cc(-n3nnc4c3CCCCCC4)c1-n1nnc3c1CCCCCC3)CCCCCC2	25.8 µM
COc1cc(NCCCCCCCNC(C)C)c2nccc(C)c2c1	27.9 µM
CC(C(=O)O)C(C)(O)C(=O)O (centres undefined)	> 100 µM
CCCCCCCCCc1nn2c(Cc3ccccc3)nnc2s1	57.7 µM
CCOC(=O)C(NC(=O)c1nc[nH]c1[N+](=O)[O-])C(C)C (centres undefined)	> 100 µM
N#CNC(N)=Nc1ccc(Cl)cc1	> 100 µM
CCCSc1nc(-c2ccc(OC)cc2)c(C#N)c(=O)n1C1OC(COC(C)=O)C(OC(C)=O)C(OC(C)=O)C1OC(C)=O (centres undefined)	> 100 µM
O=C(Nc1noc(-c2ccccc2)n1)c1ccccc1CNc1noc(-c2ccccc2)n1	> 100 µM
CN(C)CCNC(=O)c1cccc2nc(-c3ccccc3)oc12	> 100 µM
O=c1oc2ccccc2[n+]([O-])c1-c1ccccc1	> 100 µM
